test-name: NCI Yeast Anticancer Drug Screen. Data for the sgs1 mgt1 strain (AID 161);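 further: 0% = growth of cultures given vehicle only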
details: S. cerevisiae sgs1 mgt1 strain, at 5.0 µM (retest, dose inferred, filed as 0.5), hits give high values
Compounds without any hit were thinned out: in the full panel of roughly 79,000, 15% have a hit.
result-type: growth inhibition (%)

# compound, measurement-unit, test-result
data = [
    ("O=[N+]([O-])c1cc(Br)cc2c1nc(NCCCO)c1ccccc12", "%", 43),
    ("CCCCCCCC/C=C\\CCCCCCCC(=O)NCC[N+](C)(C)C", "%", 53),
    ("C=C(c1ccccc1)[P+](c1ccccc1)(c1ccccc1)c1ccccc1", "%", 99),
    ("CSc1nc2ccccc2s1", "%", -1),
    ("CCCCC1(C(O)CC)Sc2ccccc2N1C (configuration not stated)", "%", -2),
    ("Cc1ccc(-c2c(C#N)c(S)n(NS(=O)(=O)c3ccccc3)c(=O)c2C#N)cc1", "%", 32),
    ("CC(=O)N1c2ccccc2Sc2c1ccc1ccccc21", "%", 11),
    ("C/C=C/c1ccc(OCC(=O)O)c(OC)c1", "%", 8),
    ("COc1nc2nc(Cl)cc(C)c2c2ccccc12 (tested in a mixture with another compound)", "%", 8),
    ("CCOC(=O)c1c(C)n(C)c2c1nnc1ccccc12", "%", 19),
    ("Cc1cc(=O)[nH]c2cc3oc4ccccc4c3cc12", "%", 11),
    ("Cc1cccc(C[N+](C)(C)CCCO)c1C", "%", 3),
]
